target: Protein arginine N-methyltransferase 5 (Homo sapiens); assay: Inhibition of PRMT5 methyltransferase activity in human HCT-116 cells expressing wild type MTAP assessed as inhibition of PRMT5-mediated SDMA modification level incubated for 96 hrs by In-cell Western analysis; format: cell-based
Sequence (O14744 whole entry): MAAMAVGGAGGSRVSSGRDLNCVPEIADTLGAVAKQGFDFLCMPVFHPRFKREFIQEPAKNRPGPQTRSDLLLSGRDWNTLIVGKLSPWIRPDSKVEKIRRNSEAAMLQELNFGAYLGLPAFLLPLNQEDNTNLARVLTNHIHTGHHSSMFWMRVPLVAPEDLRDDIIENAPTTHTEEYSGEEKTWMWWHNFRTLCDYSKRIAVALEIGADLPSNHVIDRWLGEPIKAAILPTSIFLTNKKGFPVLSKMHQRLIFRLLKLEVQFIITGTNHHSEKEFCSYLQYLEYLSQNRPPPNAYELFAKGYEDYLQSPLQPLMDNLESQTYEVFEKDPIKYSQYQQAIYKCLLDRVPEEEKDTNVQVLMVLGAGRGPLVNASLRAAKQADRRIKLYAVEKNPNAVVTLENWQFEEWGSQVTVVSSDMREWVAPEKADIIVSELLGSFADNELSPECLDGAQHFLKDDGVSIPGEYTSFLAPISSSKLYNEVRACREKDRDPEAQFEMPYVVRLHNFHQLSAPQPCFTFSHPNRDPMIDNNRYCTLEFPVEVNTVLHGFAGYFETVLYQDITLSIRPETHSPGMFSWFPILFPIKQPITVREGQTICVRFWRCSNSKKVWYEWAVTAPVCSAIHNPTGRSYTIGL
pIC50: −log10 of the molar value.
measurementType: pIC50

Request: Write down pIC50 measured for item `COCc1cc(-c2cnn(C)c2-c2sc3ccccc3c2C#N)cc2c(CN)n[nH]c(=O)c12`
Response: 6.57

Request: Write down pIC50 measured for item `Cn1ncc(-c2cc(Cl)c3c(=O)[nH]nc(CN)c3c2)c1-c1sc2ccccc2c1C#N`
Response: < 6.00

Request: Write down pIC50 measured for item `Cc1cc(-c2cnn(C)c2-c2sc3ccccc3c2C#N)cc2c(CN)n[nH]c(=O)c12`
Response: < 6.00

Request: Write down pIC50 measured for item `Cn1ncc(-c2cc([C@@H]3CCCO3)c3c(=O)[nH]nc(CN)c3c2)c1-c1sc2ccccc2c1C#N`
Response: < 6.00

###

Can you tell me Ratio IC50 for the items I'm about to list?
experiment: Ratio IC50 for antiproliferative activity against human HCT-116 cells expressing wild type MTAP to IC50 for antiproliferative activity against MTAP knockout human HCT-116 cells
Give the value as a plain number.

Request: Write down Ratio IC50 measured for item `COCc1cc(-c2cnn(C)c2-c2sc3ccccc3c2C#N)cc2c(CN)n[nH]c(=O)c12`
Response: 3

Request: Write down Ratio IC50 measured for item `CCOc1cc(-c2cnn(C)c2-c2sc3ccccc3c2C#N)cc2c(CN)n[nH]c(=O)c12`
Response: 4

Request: Write down Ratio IC50 measured for item `Cn1ncc(-c2cc(O)c3c(=O)[nH]nc(CN)c3c2)c1-c1sc2ccccc2c1C#N`
Response: 23

Request: Write down Ratio IC50 measured for item `Cn1ncc(-c2cc([C@@H]3CCCO3)c3c(=O)[nH]nc(CN)c3c2)c1-c1sc2ccccc2c1C#N`
Response: 3

###

molecular target: Protein arginine N-methyltransferase 5 (Homo sapiens); assay: Inhibition of PRMT5 methyltransferase activity in MTAP knockout human HCT-116 cells assessed as inhibition of PRMT5-mediated SDMA modification level incubated for 96 hrs by In-cell Western analysis; type: cell-based
Can you tell me IC50 for the items I'm about to list?
API: value field is a number in nM; no unit string.

Request: Write down IC50 measured for item `Cc1cc(-c2cnn(C)c2-c2sc3ccccc3c2C#N)cc2c(CN)n[nH]c(=O)c12`
Response: 17

Request: Write down IC50 measured for item `CCOc1cc(-c2cnn(C)c2-c2sc3ccccc3c2C#N)cc2c(CN)n[nH]c(=O)c12`
Response: 112

Request: Write down IC50 measured for item `Cn1ncc(-c2cc([C@H]3CCCO3)c3c(=O)[nH]nc(CN)c3c2)c1-c1sc2ccccc2c1C#N`
Response: 4

Request: Write down IC50 measured for item `Cn1ncc(-c2cc(C(F)F)c3c(=O)[nH]nc(CN)c3c2)c1-c1sc2ccccc2c1C#N`
Response: 25

Request: Write down IC50 measured for item `Cn1ncc(-c2cc(O)c3c(=O)[nH]nc(CN)c3c2)c1-c1sc2ccccc2c1C#N`
Response: 262

Request: Write down IC50 measured for item `Cn1ncc(-c2cc([C@@H]3CCCO3)c3c(=O)[nH]nc(CN)c3c2)c1-c1sc2ccccc2c1C#N`
Response: 390

Request: Write down IC50 measured for item `COCc1cc(-c2cnn(C)c2-c2sc3ccccc3c2C#N)cc2c(CN)n[nH]c(=O)c12`
Response: 5

Request: Write down IC50 measured for item `Cn1ncc(-c2cc(Cl)c3c(=O)[nH]nc(CN)c3c2)c1-c1sc2ccccc2c1C#N`
Response: 17
